quantity.name: melting point

Reference set (8 entries):
CNC(=O)C(Cc1ccc(OC)cc1)NC(=O)C(CC(C)C)C(S)CC(=O)NCC(=O)O (configuration not stated) :: 228 to 231 °C
O=[N+]([O-])c1cc(C(F)(F)F)cc([N+](=O)[O-])c1Nc1c(Cl)cncc1Cl :: 138 to 140 °C
CCOC(=O)c1c(C(F)(F)F)nc(C(F)(F)F)c(C(=O)OCC)c1Br :: 56 to 61 °C
CC(=O)N1CCCCNC1=NC(c1ccccc1)c1ccccc1 :: 250 to 252 °C
O=C1N(Cc2ccc3nsnc3c2)c2ccccc2C12COc1cc3c(cc12)OCCO3 (configuration not stated) :: 189 to 191 °C
O=C(O)c1ccc(OCCCO/N=C/c2cn(Cc3ccccc3)c3ccccc23)cc1O :: 182 to 183 °C
N=C(c1ccc(Cl)cc1)c1cc2ccccc2cn1 :: 151 to 152 °C
O=C(NCc1cccnc1)c1ccc2n1Cc1ccccc1N(C(=O)c1ccc3c(c1)Cc1ccccc1-3)C2 :: 116 to 119 °C

Entry "Cc1nc2c(O)c(CC[C@@H](O)c3ccccc3)c(C(=O)N(C)C)cc2n1COCC[Si](C)(C)C" ; melting point = 142 to 143 °C

Lookup result for CC(C(=O)N(C)C)n1cc(C#N)c(-c2ccccc2)n1 (configuration not stated) ; measured melting point: 143 to 146 °C

Looking up "CCCCCCCCCCCCCCOc1ccc(COC(=O)N(Cc2ccccn2)C(C)=O)cc1" , I found its melting point recorded as 52 to 53 °C

Just for reference, a melting point compilation (Tetko et al.; mined from patent text by program, amines drawn as free bases though some values may be those of a salt) is where these values come from.
